Values from ChEMBL document CHEMBL1147162

Listed here are compounds together with their documented inhibition in vivo at 300 µmol/kg.
system: Mus musculus; assay: Antiinflammatory activity against TPA-induced ear edema in Swiss mouse at 300 umol/kg, po after 6 hrs; assay type: functional

{"columns": ["compound", "inhibition in vivo at 300 µmol/kg, %"],
 "data": [
  ["O=C(N/N=C/c1cccs1)c1ccc2c(c1)OCO2", -10.5],
  ["CC(C)(C)c1cc(/C=N/NC(=O)c2ccc3c(c2)OCO3)cc(C(C)(C)C)c1O", -19.6],
  ["CC(C)(C)c1cc(/C=N/NC(=O)c2cc3c(cc2[N+](=O)[O-])OCO3)cc(C(C)(C)C)c1O", 24.1],
  ["CS(=O)(=O)Nc1ccc([N+](=O)[O-])cc1Oc1ccccc1 [NIMESULIDE]", -10.6]
]}

* * *

test system: Rattus norvegicus; experiment: Antiinflammatory activity against carrageenan-induced paw edema in Wistar rat at 300 umol/kg, po after 3 hrs; assay type: functional
Param threshold (20%) applies to inhibition in vivo at 300 µmol/kg; output label 1 when value >= threshold, label 0 when value < threshold.

{"columns": ["compound", "answer label"],
 "data": [
  ["O=C(N/N=C/c1ccccc1)c1cc2c(cc1[N+](=O)[O-])OCO2", "label 0"],
  ["O=C(N/N=C/c1ccncc1)c1cc2c(cc1[N+](=O)[O-])OCO2", "label 0"],
  ["O=C(N/N=C/c1cccs1)c1cc2c(cc1[N+](=O)[O-])OCO2", "label 0"],
  ["CS(=O)(=O)Nc1ccc([N+](=O)[O-])cc1Oc1ccccc1 [NIMESULIDE]", "label 1"],
  ["O=C(N/N=C/c1ccccn1)c1cc2c(cc1[N+](=O)[O-])OCO2", "label 1"],
  ["O=C(N/N=C/c1cccs1)c1ccc2c(c1)OCO2", "label 1"],
  ["O=C(N/N=C/c1ccco1)c1cc2c(cc1[N+](=O)[O-])OCO2", "label 0"],
  ["CC(C)(C)c1cc(/C=N/NC(=O)c2cc3c(cc2[N+](=O)[O-])OCO3)cc(C(C)(C)C)c1O", "label 1"],
  ["CC(C)(C)c1cc(/C=N/NC(=O)c2ccc3c(c2)OCO3)cc(C(C)(C)C)c1O", "label 1"],
  ["O=C(N/N=C/c1ccc[nH]1)c1cc2c(cc1[N+](=O)[O-])OCO2", "label 1"]
]}
